# target-entity: T1, human GRO/MGSA (human, UniProt P09341 35-107)
# T1 construct: also called hGRO/MGSA; GRO-alpha
# T1 sequence (looked up): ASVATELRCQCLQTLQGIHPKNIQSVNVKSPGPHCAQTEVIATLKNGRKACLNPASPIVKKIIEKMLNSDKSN
# protocol-details: ELISA, coated antigen
# Excerpt: Determining cross-reactivity of anti-MCP-1 antibodies with other chemokines. […]
I would appreciate it if you labelled entries true when ELISA OD is 0.05 OD450 or higher, otherwise false.

Request: Exam item: decide whether the reported ELISA OD for anti-MCP-1 mAb 3.5.1 (antibody, V domains shown) VH: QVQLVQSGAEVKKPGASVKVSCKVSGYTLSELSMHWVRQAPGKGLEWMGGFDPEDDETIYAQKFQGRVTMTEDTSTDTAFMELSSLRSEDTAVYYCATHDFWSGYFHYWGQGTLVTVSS VL: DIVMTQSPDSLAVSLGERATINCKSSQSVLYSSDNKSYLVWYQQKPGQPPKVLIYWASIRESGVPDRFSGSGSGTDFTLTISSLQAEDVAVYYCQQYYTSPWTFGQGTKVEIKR is at least 0.05 OD450.
Response: false

Request: Similarly, anti-MCP-1 mAb 3.2 (antibody, V domains shown, also called 3.2 (neat)) VH: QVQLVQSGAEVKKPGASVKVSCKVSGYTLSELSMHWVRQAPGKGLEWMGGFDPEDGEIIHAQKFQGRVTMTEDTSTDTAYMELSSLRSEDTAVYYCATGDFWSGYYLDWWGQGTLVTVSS VL: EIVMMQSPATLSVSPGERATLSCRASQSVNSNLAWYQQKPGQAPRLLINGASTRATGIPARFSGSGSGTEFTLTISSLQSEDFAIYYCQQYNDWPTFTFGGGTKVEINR ?
Response: false

Request: Similarly, anti-MCP-1 mAb 1.2.1 (antibody, V domains shown) VH: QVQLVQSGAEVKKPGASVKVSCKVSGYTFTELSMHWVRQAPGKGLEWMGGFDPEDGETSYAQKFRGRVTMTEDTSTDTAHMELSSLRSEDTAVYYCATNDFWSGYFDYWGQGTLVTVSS VL: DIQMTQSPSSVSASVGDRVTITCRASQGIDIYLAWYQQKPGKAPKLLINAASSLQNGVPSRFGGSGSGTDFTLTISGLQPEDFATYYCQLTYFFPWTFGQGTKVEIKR ?
Response: false

Request: Similarly, anti-MCP-1 mAb 1.4.1 (antibody, V domains shown) VH: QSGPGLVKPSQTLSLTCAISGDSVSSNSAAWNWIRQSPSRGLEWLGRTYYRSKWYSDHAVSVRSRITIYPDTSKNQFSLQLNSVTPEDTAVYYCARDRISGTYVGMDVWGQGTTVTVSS VL: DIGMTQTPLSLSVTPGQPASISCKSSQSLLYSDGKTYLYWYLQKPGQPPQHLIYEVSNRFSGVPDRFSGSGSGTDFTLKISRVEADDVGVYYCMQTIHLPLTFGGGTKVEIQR ?
Response: false

Request: Similarly, anti-MCP-1 mAb 5.1 (antibody, V domains shown) VH: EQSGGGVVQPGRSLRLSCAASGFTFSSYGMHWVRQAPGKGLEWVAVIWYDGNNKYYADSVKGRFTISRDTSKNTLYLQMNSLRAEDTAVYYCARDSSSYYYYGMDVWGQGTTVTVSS VL: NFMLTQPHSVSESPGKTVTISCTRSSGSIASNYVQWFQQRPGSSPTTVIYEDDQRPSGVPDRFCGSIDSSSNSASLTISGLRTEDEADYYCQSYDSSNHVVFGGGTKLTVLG ?
Response: false

Request: Similarly, anti-MCP-1 mAb 1.11.1 (antibody, V domains shown) VH: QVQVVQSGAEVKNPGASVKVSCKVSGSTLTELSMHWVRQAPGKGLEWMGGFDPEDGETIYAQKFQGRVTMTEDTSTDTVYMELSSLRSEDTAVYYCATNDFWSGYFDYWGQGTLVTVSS VL: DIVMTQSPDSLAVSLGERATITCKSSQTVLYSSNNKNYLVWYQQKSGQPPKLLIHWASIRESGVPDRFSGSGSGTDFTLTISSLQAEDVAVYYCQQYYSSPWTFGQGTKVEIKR ?
Response: false

Request: Similarly, anti-MCP-1 mAb 1.8.1 (antibody, V domains shown) VH: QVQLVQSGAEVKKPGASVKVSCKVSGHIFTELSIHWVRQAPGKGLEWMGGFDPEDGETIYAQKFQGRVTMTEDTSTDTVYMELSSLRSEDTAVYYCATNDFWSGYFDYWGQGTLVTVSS VL: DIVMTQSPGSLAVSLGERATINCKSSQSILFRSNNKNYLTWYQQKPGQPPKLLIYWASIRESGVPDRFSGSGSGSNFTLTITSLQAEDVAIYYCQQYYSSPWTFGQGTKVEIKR ?
Response: true

Request: Similarly, anti-MCP-1 mAb 1.6.1 (antibody, V domains shown) VH: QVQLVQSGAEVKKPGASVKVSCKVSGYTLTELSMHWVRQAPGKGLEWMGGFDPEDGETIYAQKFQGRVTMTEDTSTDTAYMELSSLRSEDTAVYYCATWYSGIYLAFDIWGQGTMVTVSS VL: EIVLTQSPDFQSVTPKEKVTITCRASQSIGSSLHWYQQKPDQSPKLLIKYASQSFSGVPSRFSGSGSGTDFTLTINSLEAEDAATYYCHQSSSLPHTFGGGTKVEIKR ?
Response: false

Request: Similarly, anti-MCP-1 mAb 2.4.1 (antibody, V domains shown) VH: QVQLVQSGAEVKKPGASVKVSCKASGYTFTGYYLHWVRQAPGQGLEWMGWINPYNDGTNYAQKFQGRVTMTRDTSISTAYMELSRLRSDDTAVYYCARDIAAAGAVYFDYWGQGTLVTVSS VL: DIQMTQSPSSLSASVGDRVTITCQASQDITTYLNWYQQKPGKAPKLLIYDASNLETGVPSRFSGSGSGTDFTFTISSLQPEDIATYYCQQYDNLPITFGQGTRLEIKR ?
Response: false

Request: Similarly, anti-MCP-1 mAb 3.4.1 (antibody, V domains shown) VH: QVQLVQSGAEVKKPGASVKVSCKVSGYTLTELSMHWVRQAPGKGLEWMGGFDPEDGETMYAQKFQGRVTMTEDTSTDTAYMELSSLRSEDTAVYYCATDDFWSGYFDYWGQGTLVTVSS VL: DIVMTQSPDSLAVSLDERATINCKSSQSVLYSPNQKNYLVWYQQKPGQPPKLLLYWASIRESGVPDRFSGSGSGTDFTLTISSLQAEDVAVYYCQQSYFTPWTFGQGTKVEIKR ?
Response: true
